System: T-47D breast
Method Summary: NCI tumour cell line growth inhibition, 48 h
Metric: TGI (µM)
Expressed in µM, but write only the number.

Examples from the recorded data:
[
  {
    "Mol Smiles": "CCOc1ccc(N(C)c2ccc(/C=C/C3=[N+](C)c4ccccc4C3(C)C)cc2)cc1",
    "Tested Target": "T-47D breast",
    "Recorded Value": 2.67
  },
  {
    "Mol Smiles": "COc1cc2nc(-c3cccs3)nc(Nc3cccc([N+](=O)[O-])c3)c2cc1OC",
    "Tested Target": "T-47D breast",
    "Recorded Value": 38.6
  }
]

Supply recorded TGI for O=C1C=C(Nc2ccccc2)c2ccccc2C1=O here.
9.88

Supply recorded TGI for CN(C)CCNC(=O)c1cc2c3cc(Cl)ccc3[nH]c2c2ncccc12 here.
17.8

====

Tested on: NCI-H226 lung
Method Summary: NCI tumour cell line growth inhibition, 48 h; in the data active = GI50 below about 0.43 µM; inactive = the rest
Mark one answer only. Choices: 1 (yes) (active), 0 (no) (inactive)

Before answering, review these 10 worked examples.
[
  {
    "Compound": "CN(C)CCNC(=O)c1cc2c3cc(Cl)ccc3[nH]c2c2ncccc12",
    "Tested Target": "NCI-H226 lung",
    "Class Name": "0 (no)"
  },
  {
    "Compound": "COC(=O)c1c2c(c(C)[n+]([O-])c1C)C(=O)C(NCc1ccc(OC)cc1)=CC2=O",
    "Tested Target": "NCI-H226 lung",
    "Class Name": "0 (no)"
  },
  {
    "Compound": "CC[C@@]1(OP(=O)(O)O)C(=O)OCc2c1cc1n(c2=O)Cc2cc3ccccc3nc2-1",
    "Tested Target": "NCI-H226 lung",
    "Class Name": "1 (yes)"
  },
  {
    "Compound": "O=C(N/N=C/c1ccc(Cl)cc1)c1ccc(NC(=O)c2ccccn2)cc1",
    "Tested Target": "NCI-H226 lung",
    "Class Name": "0 (no)"
  },
  {
    "Compound": "O=[N+]([O-])c1ccc(C2=NCCO2)cc1",
    "Tested Target": "NCI-H226 lung",
    "Class Name": "0 (no)"
  },
  {
    "Compound": "CCC(=C(c1ccc(OCCN2CCCCC2)cc1)c1ccc(OCCN2CCCCC2)cc1)c1ccc(Cl)cc1",
    "Tested Target": "NCI-H226 lung",
    "Class Name": "0 (no)"
  },
  {
    "Compound": "CCOC(=O)c1noc2c1CCc1c-2cn(Cc2ccc(OC)cc2)c1-c1cc(OC)c(OC)c(OC)c1",
    "Tested Target": "NCI-H226 lung",
    "Class Name": "0 (no)"
  },
  {
    "Compound": "CCN1CCN(CCC(=O)Nc2cccc(-n3cc(-c4ccncc4)c(-c4ccc(Cl)c(OC)c4)n3)c2)CC1",
    "Tested Target": "NCI-H226 lung",
    "Class Name": "0 (no)"
  },
  {
    "Compound": "CN(C)CCC(N)(P(=O)([O-])[O-])P(=O)([O-])[O-].N.N.[Pt+2]",
    "Tested Target": "NCI-H226 lung",
    "Class Name": "0 (no)"
  },
  {
    "Compound": "CC(C)=CCc1cc2c(cc1O)C1=C(C(=O)C3=C(NCCS3(=O)=O)C1=O)C(C=C(C)C)O2 (stereo not drawn)",
    "Tested Target": "NCI-H226 lung",
    "Class Name": "0 (no)"
  }
]

What outcome does the record of this test show for COc1cc(/C=C/C(=O)c2cccc(-n3cc(-c4ccccc4)[nH]c3=O)c2)cc(OC)c1OC ?
0 (no)

What outcome does the record of this test show for COc1ccc(-c2nc3sc(-c4cc(OC)c(OC)c(OC)c4)nn3c2/C=C2/C(=O)Nc3ccc(F)cc32)cc1 ?
0 (no)

What outcome does the record of this test show for CCN(Cc1ccc(OC)cc1)c1ccc(CO)c(Cl)c1 ?
1 (yes)

What outcome does the record of this test show for CCCCn1c(=O)[nH]c(N)c([C@@H]2c3c([nH]c(=O)n(CCCC)c3=O)Oc3ccc4ccccc4c32)c1=O ?
0 (no)

What outcome does the record of this test show for Cc1cc(I)cc(CNCCN(C)C)c1O ?
0 (no)

What outcome does the record of this test show for COC(=O)[C@@H](C)C[C@H](Cc1ccccc1)NC(=O)c1nc([C@@H](C[C@H](C(C)C)N(C)C(=O)[C@@H](NC(=O)[C@H]2C[C@H](O)CCN2C)C(C)C)OC(C)=O)sc1C(C)C ?
1 (yes)

What outcome does the record of this test show for O=C([CH-]C(=O)c1ccccc1)c1ccccc1.O=C([CH-]C(=O)c1ccccc1)c1ccccc1.O=C([CH-]C(=O)c1ccccc1)c1ccccc1.[Ga+3] ?
0 (no)

What outcome does the record of this test show for Cn1cc(C2=C(c3ccsc3)C(=O)NC2=O)c2ccccc21 ?
0 (no)
